Target: MCL-1 (Homo sapiens, UniProt Q07820)
Sequence (Q07820 whole entry): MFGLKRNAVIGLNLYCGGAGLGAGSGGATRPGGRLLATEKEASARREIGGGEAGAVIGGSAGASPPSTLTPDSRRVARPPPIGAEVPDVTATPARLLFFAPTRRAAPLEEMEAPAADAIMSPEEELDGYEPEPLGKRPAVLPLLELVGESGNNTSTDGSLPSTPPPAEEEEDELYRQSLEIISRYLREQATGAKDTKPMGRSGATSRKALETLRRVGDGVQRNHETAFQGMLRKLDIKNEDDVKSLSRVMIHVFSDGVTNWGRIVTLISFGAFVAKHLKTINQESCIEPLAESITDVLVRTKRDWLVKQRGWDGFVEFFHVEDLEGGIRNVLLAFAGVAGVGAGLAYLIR
Assay: Protein-protein interaction assay MCL-1/Noxa BH3 peptide (MCL-1 assay), TR-FRET
Type: binding
Settings: MBP-MCL-1 / Noxa BH3-derived peptide, median
experimental-readout: IC50 (nM)

Q: What value of IC50 has been reported for the following compound? CN1CCCn2c(C(=O)O)c(CCCOc3cccc4ccccc34)c3cccc(c32)-c2c(COc3ccccc3)nn(C)c2C1 (single isomer, unassigned) [Example 1-83]
A: 240

a = Cn1ccnc1COCc1nn(C)c2c1-c1cccc3c(CCCOc4cccc5ccccc45)c(C(=O)O)n(c13)CCCCOC2 (single isomer, unassigned) [Example 233]
b = COCc1nn(C)c2c1-c1cccc3c(CCCOc4cccc5ccccc45)c(C(=O)O)n(c13)CCCCOC2 (single isomer, unassigned; enantiomer 2) [Example 160]
Q: When their IC50 values are compared, which is larger, a or b ? Respond with the label that goes with your answer.
A: a

====

Biological target: MCL-1 (Homo sapiens, UniProt Q07820)
Assay: Protein-protein interaction assay MCL-1/Noxa BH3 peptide (MCL-1 assay), TR-FRET
Format: binding
Settings: MBP-MCL-1 / Noxa BH3-derived peptide, median
experimental-readout: IC50 (nM)

a = O=C(O)c1c(CCCOc2cccc3ccccc23)c2cccc3c2n1CCCCOCc1nn2c(c1-3)COCC2 (racemic) [Example 250]
b = Cc1ccc2c(CCCOc3cccc4ccccc34)c(C(=O)O)n3c2c1-c1c(nn(C)c1C)CN(C)CCC3 (racemic) [Example 072]
Q: Which has the smaller recorded IC50, a or b ? Respond with the label that goes with your answer.
A: b

====

Tested on: SUDHL5
Assay: Anti-proliferative effect (CellTiter-Glo, 72 h), SUDHL5
Format: cell-based
Details: Homo sapiens, SU-DHL-5, 72 h, SUDHL5 cells, antiproliferation, 72 h incubation, median, read-out: Antiproli SUDHL5 [M] (median)
experimental-readout: IC50 (M)

Q: What value of IC50 has been reported for the following compound? Cn1nc(COc2ccc(S(C)(=O)=O)cc2)c2c1COCC=CCn1c(C(=O)O)c(CCCOc3cccc4ccccc34)c3cccc-2c31 (single isomer, unassigned)
A: 1.25e-05

Q: What value of IC50 has been reported for the following compound? Cc1cc(OCCCc2c(C(=O)O)n3c4c(cccc24)-c2c(C)nn(C)c2COCCCC3)cc(C)c1Cl (racemic) [Example 009]
A: 3.62e-06

a = Cc1c2c(nn1C)COCCCn1c(C(=O)O)c(CCCOc3cccc4ccccc34)c3cccc-2c31 (racemic)
b = Cn1nc(COc2ccc(C3(O)CCOCC3)cc2)c2c1COCC=CCn1c(C(=O)O)c(CCCOc3cccc4ccccc34)c3cccc-2c31 (racemic)
c = Cc1nn(C)c2c1-c1cccc3c(CCCOc4cccc5ccccc45)c(C(=O)O)n(c13)CCCN(c1ccc(N3CCOCC3)cc1)C2 (single isomer, unassigned; enantiomer 1)
Q: List these items ordered by IC50, big to small. # output: labels, in the requested order
A: b, c, a

====

Test system: SUDHL5
Assay: Induction of cytotoxicity (CellTiter-Glo, 5 h), SUDHL5
Conditions: read-out: Cytotox SUDHL5 [M] (median); SUDHL5 cells, cytotoxicity induction, CellTiter-Glo, 5 h, median
experimental-readout: IC50 (M)
Please state the figure in M; there is no need to write the unit.

Field: example entries. Status: answers known.
Q: What value of IC50 has been reported for the following compound? CCc1nn(C)c2c1-c1cccc3c(CCCOc4cccc5c(F)cccc45)c(C(=O)O)n(c13)CCCCOC2 (single isomer, unassigned) [Example 300]
A: 5.8e-06

Q: What value of IC50 has been reported for the following compound? CCc1nn(C)c2c1-c1cccc3c(CCCOc4cccc5cc(C(F)(F)F)ccc45)c(C(=O)O)n(c13)CCCCOC2 (single isomer, unassigned; enantiomer 2) [Example 315]
A: 1.48e-05

Query compound follows.
Q: What value of IC50 has been reported for the following compound? Cn1nc(CN2CC3(COC3)C2)c2c1COCCCCn1c(C(=O)O)c(CCCOc3cccc4ccccc34)c3cccc-2c31 (single isomer, unassigned; enantiomer 2) [Example 345]
A: 8.32e-06
